# assayed-system: Prostaglandin G/H synthase 2 (Homo sapiens, UniProt P35354)
# Sequence (P35354 whole entry): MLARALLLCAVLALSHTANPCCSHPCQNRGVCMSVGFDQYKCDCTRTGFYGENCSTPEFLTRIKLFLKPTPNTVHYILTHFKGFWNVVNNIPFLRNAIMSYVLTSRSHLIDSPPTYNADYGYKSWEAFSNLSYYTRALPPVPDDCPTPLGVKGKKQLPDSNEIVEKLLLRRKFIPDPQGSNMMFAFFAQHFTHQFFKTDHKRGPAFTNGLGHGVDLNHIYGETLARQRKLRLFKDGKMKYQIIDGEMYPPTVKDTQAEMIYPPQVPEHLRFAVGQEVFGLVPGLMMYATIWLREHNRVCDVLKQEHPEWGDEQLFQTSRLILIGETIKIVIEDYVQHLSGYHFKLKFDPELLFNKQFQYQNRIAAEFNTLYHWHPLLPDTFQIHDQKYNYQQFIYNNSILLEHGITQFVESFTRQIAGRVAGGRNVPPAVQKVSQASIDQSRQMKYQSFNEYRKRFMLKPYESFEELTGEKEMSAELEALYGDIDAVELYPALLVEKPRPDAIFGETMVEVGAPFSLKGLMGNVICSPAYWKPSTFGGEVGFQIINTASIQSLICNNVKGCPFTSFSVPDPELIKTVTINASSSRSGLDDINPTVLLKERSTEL
# protocol-summary: Inhibition of human recombinant COX2 after 2 mins by EIA
property: IC50 (µM)
Numbers only here, please. The scale is µM.

Example entries begin here.
[
  {
    "smiles-structure": "Cc1ccc(-c2nn(-c3ccccc3)cc2-c2nnc(-c3ccc(Cl)cc3)o2)cc1",
    "assayed-system": "Prostaglandin G/H synthase 2 (Homo sapiens, UniProt P35354)",
    "number": 58
  },
  {
    "smiles-structure": "Fc1ccc(-c2nn(-c3ccccc3)cc2-c2nnc(-c3ccc(Cl)cc3)o2)cc1",
    "assayed-system": "Prostaglandin G/H synthase 2 (Homo sapiens, UniProt P35354)",
    "number": 5.5
  }
]

Form field: reported IC50 of O=[N+]([O-])c1ccc(-c2nn(-c3ccccc3)cc2-c2nnc(-c3ccncc3)o2)cc1 0.5

Form field: reported IC50 of Clc1ccc(-c2nn(-c3ccccc3)cc2-c2nnc(-c3ccncc3)o2)cc1 4.4

Form field: reported IC50 of COc1ccc(-c2nn(-c3ccccc3)cc2-c2nnc(-c3ccc(Cl)cc3)o2)cc1 67

Form field: reported IC50 of COc1ccc(-c2nn(-c3ccccc3)cc2-c2nnc(-c3ccncc3)o2)cc1 42

Form field: reported IC50 of Clc1ccc(-c2nnc(-c3cn(-c4ccccc4)nc3-c3ccc(Cl)cc3)o2)cc1 8.7

Data origin, for the record: ChEMBL document CHEMBL3259642
